src = the supplement of paper PMC8967900

Tested on: COG-LL-355h;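 further: ALL cell lines in 384-well plates, five doses spanning 10,000-fold, each plate scaled between vehicle and 100 µmol/L benzalkonium chloride controls, sDSS an adapted area-under-curve metric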
Assay: selective drug sensitivity score (sDSS, relative to normal bone marrow) (sDSS (score)); higher = more potent and effective on the cell line relative to normal bone marrow cells
Details: 72 h
Below: a set of entries, each annotated with reported selective drug sensitivity score.
Please state the value as a number alone, without comment.

compound="CNC(=O)c1cccc(-c2ccc3c(N4CCOC[C@@H]4C)nc(N4CCOC[C@@H]4C)nc3n2)c1 [Vistusertib] (top concentration 10000 nM)" targetorsystem=COG-LL-355h parameter="selective drug sensitivity score" resultnumber=6.12

Challenge: Quickly give me recorded selective drug sensitivity score for CC(C)(C)c1nc(-c2cccc(NS(=O)(=O)c3c(F)cccc3F)c2F)c(-c2ccnc(N)n2)s1 [Dabrafenib] (top concentration 2500 nM)
Response given: 0.38

Challenge: Quickly give me recorded selective drug sensitivity score for COc1cc2c(Nc3ccc(Cl)c(Cl)c3F)ncnc2cc1OC[C@@H]1C[C@@H]2CN(C)C[C@@H]2C1 [Tesevatinib] (top concentration 1000 nM)
Response given: 2.04

Challenge: Quickly give me recorded selective drug sensitivity score for CC(=O)O[C@H]1C(=O)[C@@]2(C)[C@H]([C@H](OC(=O)c3ccccc3)[C@]3(O)C[C@H](OC(=O)[C@H](O)[C@@H](NC(=O)c4ccccc4)c4ccccc4)C(C)=C1C3(C)C)[C@]1(OC(C)=O)CO[C@@H]1C[C@@H]2O [Paclitaxel] (top concentration 1000 nM)
Response given: 5.14

Challenge: Quickly give me recorded selective drug sensitivity score for COc1ccc(COc2cc3oc(=O)c4cc(C(C)O)ccc4c3cc2OC)cc1 (configuration not stated) [Palomid-529] (top concentration 10000 nM)
Response given: -0.24

Challenge: Quickly give me recorded selective drug sensitivity score for CC(C)[C@@H](CS(=O)(=O)C(C)C)N1C(=O)[C@@](C)(CC(=O)O)C[C@H](c2cccc(Cl)c2)[C@H]1c1ccc(Cl)cc1 [AMG-232] (top concentration 10000 nM)
Response given: 8.76

Challenge: Quickly give me recorded selective drug sensitivity score for CCCCCCCCc1ccc(CCC(N)(CO)CO)cc1 [Fingolimod] (top concentration 10000 nM)
Response given: 6.88
